// provenance: patent US20190359693A1

# assaySystem: hemagglutinin (HA) of influenza B/Brisbane/60/08 (Victoria) (influenza B virus)
# assayRemarks: cell-based or functional assay
quantityMeasured: VNA IC50

Prompt line: Reported VNA IC50 for SD3007 (VHH) VHH: EVQLLESGGGLVQPGGSLRLSCAASGFTLENKAIGWFRQAPGKEREGVSCISKSGSWTYYADSVKGRFTISRDNSKNTVYLQMNSLRAEDTAVYYCATTTAGGGLCWDGTTFSRLASSWGQGTQVTVSS : what is it?
Response line: > 1000 nM

Prompt line: VNA IC50 lookup needed for SD3051 (VHH) VHH: EVQLVESGGGLVQPGGSLRLSCAASGLSLDTYAMSWFRQAPGKEREGVSCISSGHGITYYADSVKGRFTISRDNSKNTLYLQMNSLQPEDTARYYCATESRYYCSDNWPAPQRYIYWGQGTQVTVSS , thanks.
Response line: > 1000 nM

Prompt line: Please report the recorded VNA IC50 for SD3055 (VHH) VHH: EVQLVESGGGLVQPGGSLRLSCAASGLSLDTYAMSWFRQAPGKEREGITCISSGHGLTYYADSVKGRFTISRDNSKNTLYLQMNSLQPEDTARYYCATESRYYCSDNWPAPQRYIYWGQGTQVTVSS .
Response line: > 1000 nM

Prompt line: # query: VNA IC50 of entry SD3074 (VHH) VHH: EVQLVESGGGLVQPGGSLRLSCAISGLSLDTYAVGWFRQAPGKEREGITCISSGHGMTYYADSVKGRFTISTDNSKNTLYLQMNSLRAEDTAVYYCATESRYYCSDNWPAPQRYIYWGQGTLVTVSS
Response line: 36 nM

Prompt line: Please report the recorded VNA IC50 for SD3088 (VHH) VHH: EVQLLESGGGLVQPGGSLRLSCAASGFTLENKAIGWFRQAPGKEREGVLCISKSGSWTYYADSVKGRFTISRDNSKNTLYLQMNSLRAEDTAVYYCATTTAGGGLCWDGTTFSRLASSWGQGTLVTVSS .
Response line: 101 nM

Prompt line: VNA IC50 for SD3072 (VHH) VHH: EVQLVESGGGLVQPGGSLRLSCAASGLSLDTYAVGWFRQAPGKEREGITCISSGHGMTYYADSVKGRFTVSTDNSKNTLYLQMNSLRAEDTAVYYCATESRYYCSDNWPAPQRYIYWGQGTLVTVSS ?
Response line: 160 nM

Prompt line: I would be grateful if you could share the reported VNA IC50 for SD3092 (VHH) VHH: EVQLVESGGGLVQPGGSLRLSCAISGLSLDTYAVGWFRQAPGKEREGVSCISSGHGMTYYADSVKGRFTISTDNSKNTLYLQMNSLRAEDTAVYYCATESRYYCSDNWPAPQRYIYWGQGTLVTVSS .
Response line: 51 nM

Prompt line: So what's the measured VNA IC50 for this one? SD1084 (VHH) VHH: EVQLVESGGGLVQPGGSLKLSCAASGFTFSTSWMYWLRQAPGKGLEWVSVINTDGGTYYADSVKDRFTISRDNAKDTLYLQMSSLKSEDTAVYYCAKDWGGPEPTRGQGTQVTVSS
Response line: 12 nM
